Conditions: 283.15 K; 100 kPa; Liquid; Frequency=3 MHz; Single path-length method
Attribute measured: speed of sound (m/s)

[[record]]
compound = "C=CCn1cc[n+](C)c1.O=S(=O)([N-]S(=O)(=O)C(F)(F)F)C(F)(F)F"
result_unit = "m/s"
recorded_measurement = 1274.9

[[record]]
compound = "CCCC[N+]1(C)CCCC1.O=S(=O)([N-]S(=O)(=O)C(F)(F)F)C(F)(F)F"
result_unit = "m/s"
recorded_measurement = 1304.4

[[record]]
compound = "CCCO [propan-1-ol]"
result_unit = "m/s"
recorded_measurement = 1258.7

[[record]]
compound = "CC[S+](CC)CC.O=S(=O)([N-]S(=O)(=O)C(F)(F)F)C(F)(F)F [triethylsulfonium bis((trifluoromethyl)sulfonyl)imide]"
result_unit = "m/s"
recorded_measurement = 1274.1


---

Settings: 328.15 K; 100 kPa; Liquid; Frequency=3 MHz; Single path-length method
Overview of reported speed of sound across a group of compounds:
Attribute measured: speed of sound (m/s)

[[record]]
compound = "CC[S+](CC)CC.O=S(=O)([N-]S(=O)(=O)C(F)(F)F)C(F)(F)F [triethylsulfonium bis((trifluoromethyl)sulfonyl)imide]"
recorded_measurement = 1184.7

[[record]]
compound = "O=S(=O)([N-]S(=O)(=O)C(F)(F)F)C(F)(F)F.On1cc[n+](O)c1 [1,3-dihydroxyimidazolium bis(trifluoromethylsulfonyl)imide]"
recorded_measurement = 1131.1

[[record]]
compound = "CCCO [propan-1-ol]"
recorded_measurement = 1105.2

[[record]]
compound = "CCCC[N+]1(C)CCCC1.O=S(=O)([N-]S(=O)(=O)C(F)(F)F)C(F)(F)F"
recorded_measurement = 1204.1

[[record]]
compound = "C=CCn1cc[n+](C)c1.O=S(=O)([N-]S(=O)(=O)C(F)(F)F)C(F)(F)F"
recorded_measurement = 1174.7


---

Overview of reported log10 of viscosity across a group of compounds:
Settings: 333.15 K; 100 kPa; Liquid; Capillary tube (Ostwald / Ubbelohde) method
Attribute measured: log10 of viscosity (log10 of the value in mPa·s)

[[record]]
compound = "C=CCn1cc[n+](C)c1.O=S(=O)([N-]S(=O)(=O)C(F)(F)F)C(F)(F)F"
attribute_measured = "log10 of viscosity"
recorded_measurement = 1.07

[[record]]
compound = "CCCC[N+]1(C)CCCC1.O=S(=O)([N-]S(=O)(=O)C(F)(F)F)C(F)(F)F"
attribute_measured = "log10 of viscosity"
recorded_measurement = 1.32

[[record]]
compound = "O=S(=O)([N-]S(=O)(=O)C(F)(F)F)C(F)(F)F.On1cc[n+](O)c1 [1,3-dihydroxyimidazolium bis(trifluoromethylsulfonyl)imide]"
attribute_measured = "log10 of viscosity"
recorded_measurement = 1.52

[[record]]
compound = "CCCO"
attribute_measured = "log10 of viscosity"
recorded_measurement = -0.05

[[record]]
compound = "CC[S+](CC)CC.O=S(=O)([N-]S(=O)(=O)C(F)(F)F)C(F)(F)F [triethylsulfonium bis((trifluoromethyl)sulfonyl)imide]"
attribute_measured = "log10 of viscosity"
recorded_measurement = 1.04


---

Overview of reported mass density across a group of molecules:
Conditions: 308.15 K; 100 kPa; Liquid; Vibrating tube method
Attribute measured: mass density (kg/m3)

[[record]]
molecule = "CCCC[N+]1(C)CCCC1.O=S(=O)([N-]S(=O)(=O)C(F)(F)F)C(F)(F)F"
attribute_measured = "mass density"
recorded_measurement = 1385.44

[[record]]
molecule = "C=CCn1cc[n+](C)c1.O=S(=O)([N-]S(=O)(=O)C(F)(F)F)C(F)(F)F"
attribute_measured = "mass density"
recorded_measurement = 1489.48

[[record]]
molecule = "CC[S+](CC)CC.O=S(=O)([N-]S(=O)(=O)C(F)(F)F)C(F)(F)F [triethylsulfonium bis((trifluoromethyl)sulfonyl)imide]"
attribute_measured = "mass density"
recorded_measurement = 1450.33

[[record]]
molecule = "O=S(=O)([N-]S(=O)(=O)C(F)(F)F)C(F)(F)F.On1cc[n+](O)c1 [1,3-dihydroxyimidazolium bis(trifluoromethylsulfonyl)imide]"
attribute_measured = "mass density"
recorded_measurement = 1728.64

[[record]]
molecule = "CCCO [propan-1-ol]"
attribute_measured = "mass density"
recorded_measurement = 791.54

